- System: MOLT-4 leukemia
- ASSAY_TEXT: NCI tumour cell line growth inhibition, 48 h
MEASURED_ATTRIBUTE: TGI

COc1ccccc1NC(=O)n1nc(N)c2ccccc21 = > 100 µM
ClC(Cl)c1nc(-c2cccnc2)n2nc(-c3ccccc3)cc2n1 = > 100 µM
Nc1nnc2cc(Cl)ccc2n1 = > 100 µM
Cn1c(=O)c(Oc2ccccc2F)cc2cnc(NC3CCOCC3)nc21 = > 25 µM

Here is the next item to consider.
Query :: API: value(readout= TGI, system= MOLT-4 leukemia, query= O=C(CC/C=C(/CS(=O)(=O)c1ccccc1)S(=O)(=O)c1ccccc1)c1ccccc1 )
Result :: > 100 µM

Cited source for all entries: PubChem BioAssay (NCI)
